B1: PDZK1 (parent)
chain: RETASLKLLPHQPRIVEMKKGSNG

Variants of: B1
Experiment: protein stability index of a GFP-peptide fusion (GPS, HEK-293T) (PSI 1-6); higher = more stable;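 further: lentivirally expressed fusions sorted by FACS into six bins by GFP to DsRed ratio, PSI derived from sequencing read proportions per bin multiplied by bin number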
Conditions: c terminus: a fixed tail appended
Measurement Label: protein stability index
Give your answer as a number; write no unit.

Please give the measured protein stability index for this variant: `V16A`
4.42

Please report the recorded protein stability index for `E17P` .
2.97

Tell me the measured protein stability index of `E17I` , please.
2.42

So what's the measured protein stability index for this one? `G24L`
3.53

Which measured protein stability index value corresponds to `L8W` ?
3.21

Which protein stability index is reported for this variant? `P13N`
3.67

Could you tell me which protein stability index is on file for `H11Q` ?
3.23

Sample `H11D` — what was its protein stability index?
2.35

Can you look up the measured protein stability index of `L9S` for me?
3.26

Value lookup for protein stability index; key = `Q12W`
3.2

Fill in: protein stability index of `E17F` is ___
2.81

GET /values?readout=protein stability index&item= `T3P`
3.75

Would you mind telling me what protein stability index value was observed for `P13G` ?
4.14

Item under review: `E2C` . Reported protein stability index?
2.1

Return reported protein stability index; argument: `L6N`
4

// query protein stability index value for entry `A4W`
2.37

Looking for the measured protein stability index of `H11Y` , can you help?
3.5

Item under review: `H11N` . Reported protein stability index?
3.38

Quick check: protein stability index of `Q12G` ?
3.62

Item `K20M` has what recorded protein stability index?
3.57

Data request, read-out protein stability index, for `S22P`
3.33

Tell me the measured protein stability index of `S22Y` , please.
2.61

Field request: protein stability index | item: `E2K`
3.58

# get_value(readout='protein stability index', item= `G21V` )
3.56

Suppose we examine the variant `K19A` ; what protein stability index value has been reported?
3.55

Entry under review: `L6H` . Reported protein stability index?
3.56

Item under review: `K19Y` . Reported protein stability index?
2.2

Given the variant `E17C` , what is its reported protein stability index?
3.17

Tell me the measured protein stability index of `V16E` , please.
4.53

Suppose we examine the variant `V16L` ; what protein stability index value has been reported?
3.87

protein stability index lookup needed for `L9D` , thanks.
3.33

Endpoint output: protein stability index of `L9H` . Value?
3.42

Recorded protein stability index for `M18K` , please?
4.56

Recorded protein stability index of `S22L` , please.
3.03

Which protein stability index is listed for `L9W` ?
2.76

For the variant `K20T` , what protein stability index is on record?
3.51

Returns the measured protein stability index for the input variant. Input: `I15S`
4.69

Give the measured protein stability index of `E2F` .
3.45

What protein stability index value was documented for this variant, `S5F` ?
1.88

What protein stability index value was documented for this variant, `V16M` ?
4.17

What measured protein stability index goes with `R1C` ?
3.34

GET /values?readout=protein stability index&item= `E2S`
3.62

Entry under review: `Q12H` . Reported protein stability index?
3.97

I would be grateful if you could share the reported protein stability index for `R1D` .
3.19

Any idea what protein stability index was measured for `P10R` ?
3.56

Sample `L8C` — what was its protein stability index?
3.38
